Entry source: PubChem BioAssay (Tox21)

# assayed-target: Nuclear receptor subfamily 1 group I member 2 (Rattus norvegicus) (UniProt Q9R1A7)
# Sequence (Q9R1A7 whole entry, looked up): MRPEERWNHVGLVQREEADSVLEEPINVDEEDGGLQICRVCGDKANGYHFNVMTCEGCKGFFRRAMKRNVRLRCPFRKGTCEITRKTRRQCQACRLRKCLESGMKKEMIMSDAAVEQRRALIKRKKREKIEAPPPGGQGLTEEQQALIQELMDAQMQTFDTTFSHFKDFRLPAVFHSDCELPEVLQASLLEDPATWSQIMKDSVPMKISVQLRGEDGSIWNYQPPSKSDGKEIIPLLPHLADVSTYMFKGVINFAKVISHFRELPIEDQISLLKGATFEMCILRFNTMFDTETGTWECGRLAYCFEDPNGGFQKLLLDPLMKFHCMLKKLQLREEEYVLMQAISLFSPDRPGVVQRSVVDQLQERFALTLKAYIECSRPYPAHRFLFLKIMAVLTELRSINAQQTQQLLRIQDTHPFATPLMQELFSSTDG
# protocol-text: Rat pregnane X receptor (rPXR) activation by small molecules, qHTS assay (AID 1346983); further: on the % scale 0 is the no-effect control and ±100 the full control effect; nearly all actives have a fitted effect of over 20% in size
# condition-details: rPXR luciferase reporter cells, One-Glo luminescence, 24 h; active compounds read high
# Source text: National Center for Advancing Translational Sciences [NCATS] NIH Chemical Genomics Center [NCGC] U.S. Environmental Protection Agency [EPA] National Institutes of Environmental Health Sciences [NIEHS] National Toxicology Program [NTP] Assay overview: The Pregnane X receptor (PXR), a ligand activated nuclear receptor plays a critical role in the regulation of genes involved in drug metabolism and transporters. […]
Results filed as inconclusive are left out.
Reported max activation is given for each of the following molecules.
Provide only the numeric value, understood in %.

Below, 5 molecules whose answers are already recorded.
FC(F)(F)C(Cl)Br (centres undefined) :: -0.375
CCc1cccc2c3c([nH]c12)C(CC)(CC(=O)O)OCC3 (centres undefined) :: 1.85
OC[C@H]1O[C@@H]2O[C@H]3[C@H](O)[C@@H](O)[C@@H](O[C@H]4[C@H](O)[C@@H](O)[C@@H](O[C@H]5[C@H](O)[C@@H](O)[C@@H](O[C@H]6[C@H](O)[C@@H](O)[C@@H](O[C@H]7[C@H](O)[C@@H](O)[C@@H](O[C@H]1[C@H](O)[C@H]2O)O[C@@H]7CO)O[C@@H]6CO)O[C@@H]5CO)O[C@@H]4CO)O[C@@H]3CO :: -2.41
C[C@]12C=CC(=O)C=C1CC[C@H]1[C@@H]3C[C@@H](O)[C@](O)(C(=O)CO)[C@@]3(C)C[C@H](O)[C@@]12F :: -5.29
NCCN :: -1.7

Task: Recorded max activation for C=C[C@H]1CN2CC[C@H]1C[C@H]2[C@H](O)c1ccnc2ccc(OC)cc12 with Nuclear receptor subfamily 1 group I member 2 (Rattus norvegicus) (UniProt Q9R1A7), please?
Output: -0.698

Task: Recorded max activation for NC[C@H](O)c1ccc(O)c(O)c1 with Nuclear receptor subfamily 1 group I member 2 (Rattus norvegicus) (UniProt Q9R1A7), please?
Output: -0.838

Task: Recorded max activation for O=Cc1ccccc1C=O with Nuclear receptor subfamily 1 group I member 2 (Rattus norvegicus) (UniProt Q9R1A7), please?
Output: 5.06

Task: Recorded max activation for CC1(C)C(C=C(Cl)Cl)C1C(=O)OCc1cccc(Oc2ccccc2)c1 (centres undefined) with Nuclear receptor subfamily 1 group I member 2 (Rattus norvegicus) (UniProt Q9R1A7), please?
Output: 4.94
